The entries below come with measured Population Apoptotic (%) values attached.
Test system: U2OS
Assay: Multiplex assay against U2OS
Assay type: toxicity, cell-based
Conditions: human, 12 h, 10 µM, compound concentration 10 uM, replicate 2
Kindly answer with a numeric value in %, unit omitted.

Past entries and their recorded results:
compound="CN1CCC[C@@H]1CCO[C@](C)(c1ccccc1)c1ccc(Cl)cc1.O=C(O)/C=C/C(=O)O [CLEMASTINE FUMARATE]" assay_value=85
compound="CNCc1ccc(-c2cc(-c3nc(-c4ccc(S(=O)(=O)C(C)C)cc4)cnc3N)on2)cc1 [BERZOSERTIB]" assay_value=11
compound=Cn1cc(-c2[nH]c3cc(NC(=O)[C@H](N)C4CCCCC4)cc4c3c2C=NNC4=O)cn1 assay_value=69

Query block: Hello, I am looking for reported Population Apoptotic (%) with U2OS for CNc1nc(NCc2ccc(NS(C)(=O)=O)cc2Cl)cc(-c2ccccn2)n1 . Could you help?
Result block: 57

Query block: Hello, I am looking for reported Population Apoptotic (%) with U2OS for C=CC(=O)Nc1cc2c(Nc3ccc(F)c(Cl)c3)ncnc2cc1OCCCN1CCOCC1.Cl.Cl [CANERTINIB DIHYDROCHLORIDE] . Could you help?
Result block: 33

Query block: Hello, I am looking for reported Population Apoptotic (%) with U2OS for CN(C)C(=O)N[C@H]1CC[C@H](CCN2CCN(c3cccc(Cl)c3Cl)CC2)CC1.Cl [CARIPRAZINE HYDROCHLORIDE] . Could you help?
Result block: 36

Query block: Hello, I am looking for reported Population Apoptotic (%) with U2OS for CN1CCCC(n2nc(Cc3ccc(Cl)cc3)c3ccccc3c2=O)CC1.Cl (stereo not drawn) [AZELASTINE HYDROCHLORIDE] . Could you help?
Result block: 57

Query block: Hello, I am looking for reported Population Apoptotic (%) with U2OS for Cc1[nH]c(/C=C2\C(=O)Nc3ccc(S(=O)(=O)N(C)c4cccc(Cl)c4)cc32)c(C)c1C(=O)N1CCN(C)CC1 . Could you help?
Result block: 25

* * *

The entries below come with measured Population Mitochondria Different-Phenotype (%) values attached.
Test system: U2OS
Assay: Multiplex assay against U2OS
Format: toxicity, cell-based
Details: human, 12 h, 1 µM, compound concentration 1 uM, replicate 2
Kindly answer with a numeric value in %, unit omitted.

Query block: Data request, read-out Population Mitochondria Different-Phenotype (%), for Cc1nc(-c2cn3c(n2)-c2ccc(-c4cnn(C(C)(C)C(N)=O)c4)cc2OCC3)n(C(C)C)n1
Result block: 20

Query block: Data request, read-out Population Mitochondria Different-Phenotype (%), for CNc1nc(NCc2ccc(NS(C)(=O)=O)cc2Cl)cc(-c2ccccn2)n1
Result block: 9

Query block: Data request, read-out Population Mitochondria Different-Phenotype (%), for O=C1NCN(c2ccccc2)C12CCN(CCCOc1ccc(F)cc1)CC2 [SPIRAMIDE]
Result block: 10

Query block: Data request, read-out Population Mitochondria Different-Phenotype (%), for CC(C)(O)CNc1ncc(-c2ccnc(Nc3ccnc(Cl)c3)n2)c(CC2CC2)n1
Result block: 17

Query block: Data request, read-out Population Mitochondria Different-Phenotype (%), for CN1CCN(CCOc2cc(OC3CCOCC3)c3c(Nc4c(Cl)ccc5c4OCO5)ncnc3c2)CC1
Result block: 23

Query block: Data request, read-out Population Mitochondria Different-Phenotype (%), for OC1(c2ccc(Cl)cc2)CCN(Cc2c[nH]c3ccccc23)CC1
Result block: 13

Query block: Data request, read-out Population Mitochondria Different-Phenotype (%), for COc1ncc(-c2ccc3nccc(-c4ccnnc4)c3c2)cc1NS(=O)(=O)c1ccc(F)cc1F
Result block: 16

Query block: Data request, read-out Population Mitochondria Different-Phenotype (%), for CN(C)C(=O)/C(C#N)=C/c1ccc(-c2nc3cnc4[nH]ccc4c3n2C2CCCCC2)o1
Result block: 6

Query block: Data request, read-out Population Mitochondria Different-Phenotype (%), for C=CC(=O)Nc1cccc(C(=O)Nc2ccc(Nc3cc(-c4[nH]c(SC)nc4C)ccn3)cc2)c1
Result block: 7

Query block: Data request, read-out Population Mitochondria Different-Phenotype (%), for CN1CCN(c2ccc(OC(F)(F)F)c(Nc3ncc4c(n3)-c3c(c(C(N)=O)nn3CCO)CC4)c2)CC1
Result block: 14

Query block: Data request, read-out Population Mitochondria Different-Phenotype (%), for Cc1nc(Nc2n[nH]c3c2CN(C(=O)N[C@H](CN(C)C)c2ccccc2)C3(C)C)c2sccc2n1
Result block: 18

Query block: Data request, read-out Population Mitochondria Different-Phenotype (%), for CC[C@H](C)C(=O)O[C@H]1C[C@@H](C)C=C2C=C[C@H](C)[C@H](CC[C@@H]3C[C@@H](O)CC(=O)O3)[C@H]21
Result block: 6

Query block: Data request, read-out Population Mitochondria Different-Phenotype (%), for Cc1[nH]c(/C=C2\C(=O)Nc3ccc(S(=O)(=O)N(C)c4cccc(Cl)c4)cc32)c(C)c1C(=O)N1CCN(C)CC1
Result block: 42

Query block: Data request, read-out Population Mitochondria Different-Phenotype (%), for Cc1nc(-c2ccc(-c3ccc(C(=O)N4CCc5cc6c(cc54)C4(CCN(C)CC4)CO6)cc3)c(C)c2)no1
Result block: 42

Query block: Data request, read-out Population Mitochondria Different-Phenotype (%), for CN(C)CC#Cc1ccc(OCCCc2sc(N3CCc4cccc(C(=O)Nc5nc6ccccc6s5)c4C3)nc2C(=O)O)c(F)c1
Result block: 31

Query block: Data request, read-out Population Mitochondria Different-Phenotype (%), for Cc1csc2c(N[C@@H](C)CN3CCN(S(=O)(=O)c4ccc(Cl)c(Cl)c4)CC3)ncnc12
Result block: 33
